molecular target: Tyrosine-protein kinase ABL1 (Homo sapiens) (UniProt P00519); experiment: ABL1 kinase (ABL1-N-HiBiT) SDR gain of signal screen; conditions: Purified ABL1-N-HiBiT enzyme, Nano-Glo HiBiT luminescence, 30 min compound incubation; series mostly up to 32.9 µM
Sequence (P00519 whole entry, looked up): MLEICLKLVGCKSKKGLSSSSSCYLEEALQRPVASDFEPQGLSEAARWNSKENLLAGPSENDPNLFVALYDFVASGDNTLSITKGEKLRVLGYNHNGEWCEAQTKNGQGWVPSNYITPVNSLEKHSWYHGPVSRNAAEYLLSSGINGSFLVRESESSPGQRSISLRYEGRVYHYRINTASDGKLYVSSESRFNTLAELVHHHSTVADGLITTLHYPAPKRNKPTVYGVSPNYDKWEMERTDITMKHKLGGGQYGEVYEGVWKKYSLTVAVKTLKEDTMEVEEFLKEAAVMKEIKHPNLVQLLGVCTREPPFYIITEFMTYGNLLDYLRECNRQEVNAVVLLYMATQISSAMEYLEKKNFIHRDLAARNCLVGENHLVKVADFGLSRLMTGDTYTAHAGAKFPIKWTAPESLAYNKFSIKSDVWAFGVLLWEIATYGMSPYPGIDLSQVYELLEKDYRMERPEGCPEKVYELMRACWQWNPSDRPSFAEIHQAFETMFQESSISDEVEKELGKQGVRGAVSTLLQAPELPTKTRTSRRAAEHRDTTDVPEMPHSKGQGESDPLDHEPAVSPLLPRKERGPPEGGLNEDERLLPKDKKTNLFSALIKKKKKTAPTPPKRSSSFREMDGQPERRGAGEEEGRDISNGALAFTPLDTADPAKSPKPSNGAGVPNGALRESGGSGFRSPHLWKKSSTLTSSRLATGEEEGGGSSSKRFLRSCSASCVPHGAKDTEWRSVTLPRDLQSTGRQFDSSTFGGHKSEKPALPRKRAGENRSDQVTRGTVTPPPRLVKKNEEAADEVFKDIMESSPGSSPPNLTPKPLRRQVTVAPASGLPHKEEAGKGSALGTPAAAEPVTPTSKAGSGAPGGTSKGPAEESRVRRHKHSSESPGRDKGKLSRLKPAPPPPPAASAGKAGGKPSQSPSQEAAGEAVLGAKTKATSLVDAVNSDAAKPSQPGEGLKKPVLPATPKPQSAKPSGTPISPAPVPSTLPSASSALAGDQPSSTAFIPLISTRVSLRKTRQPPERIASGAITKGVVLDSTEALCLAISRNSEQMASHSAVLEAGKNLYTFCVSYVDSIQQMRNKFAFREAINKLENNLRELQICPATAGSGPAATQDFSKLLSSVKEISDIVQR
Inconclusive results are not listed. Active and inactive are the calls of the source. Calls come from the whole dose curve.
readout: Potency

| compound string | recorded measurement |
| --- | --- |
| N#Cc1cn([C@@H]2O[C@H](CO)[C@H](O)[C@@H]2O)c2ncnc(N)c12 | 6.05 µM (active) |
| CCNC(=O)C[C@@H]1N=C(c2ccc(Cl)cc2)c2cc(OC)ccc2-n2c(C)nnc21 | inactive |
| O=[N+]([O-])O[C@H]1CO[C@H]2[C@@H]1OC[C@H]2O[N+](=O)[O-] | inactive |
| C/C(O)=C(\C#N)C(=O)Nc1cc(Br)ccc1Br | inactive |
